The measured values listed here are drawn from paper PMC4494852.

# Protocol Description: Lipophilicity by reversed-phase TLC on RP-18 WF254s plates with standardization
# Stated Conditions: acetonitrile/water
Examples of compounds with documented S (slope of the trend line RM vs φ) follow.
No unit in the answer, only the number.

Sample records with S (slope of the trend line RM vs φ):
O=C1Nc2ccccc2C1=O [Isatine, isatine, reference compound]    2.0278
Cc1cc(O)c2c(C)cc(=O)oc2c1 [Compound 2, 5-hydroxy-4,7-dimethylcoumarin]    3.2466
Nc1ccc(Cl)c(Cl)c1 [3,4-Dichloroaniline, 3,4-dichloroaniline, reference compound]    3.2165
O=C(c1ccccc1)c1ccccc1 [Benzophenone, benzophenone, reference compound]    4.1335
CC(=O)Nc1ccc(Cl)c(Cl)c1 [3,4-Dichloroacetanilide, reference compound]    3.5551

Task: Need S (slope of the trend line RM vs φ), item CC(=O)Oc1ccc2c(C)cc(=O)oc2c1
Result: 3.506

Task: How about CC(=O)c1c(O)ccc2c(C)cc(=O)oc12 [Compound 9, 8-Acetyl-7-hydroxy-4-methylcoumarin] ?
Result: 3.0614

Task: Now consider O=[N+]([O-])c1ccccc1O [2-Nitrophenol, 2-nitrophenol, reference compound] and answer again.
Result: 2.5429
